Tested on: WI-38 cells
experimental_details: Long-term effects on cell viability (5 days, ATP; morphology, PI imaging)
Type: cell-based
conditions: human, 5 days, 10 μM
parameter_measured: O = Potential toxicity
Returns: the value as a bare number; no unit string appended.

Examples with answers:
O=C(/C=C/c1cn(-c2ccccc2)nc1-c1cccnc1)c1ccccc1 | 0
COc1ccc(C(=O)/C=C/c2cccc(Cl)c2)c(OC)c1 | 0
CCc1ccc(Oc2nc3ccccn3c(=O)c2/C=C(\C#N)C(=O)NC2CCCCC2)cc1 | 0
COc1ccc(/C=C2\SC(=N)N(c3nccs3)C2=O)cc1 | 1
Oc1ccccc1-c1noc(-c2ccccc2O)n1 | 0
O=C(NCc1cccnc1)/C(=C\c1ccc(Br)cc1)S(=O)(=O)c1ccccc1 | 1

Would you kindly look at the next entry?
(Q) Looking for the measured O = Potential toxicity of "N=C1S/C(=C\c2cn(-c3ccccc3)nc2-c2cccs2)C(=O)N1c1nccs1" , can you help?
(A) 0

###

Measured P = Potential DNA-damaging, listed per entry for reference.
System: phosphorylated γH2A.X and TP53BP1
experimental_details: DNA damage marker analysis (immuno-staining)
conditions: human, 24 h
Returns: the value as a bare number; no unit string appended.

Examples with answers:
O=C(NCc1cccnc1)/C(=C/c1ccc(-c2ccc(Cl)cc2)o1)S(=O)(=O)c1ccccc1 | 0
COC(=O)CCc1sc2c(c1[N+](=O)[O-])NC(=O)CCC2 | 0
O=C1NCCCc2cc(Cl)sc21 | 0
Cc1ccc(NC(=O)c2ccc([N+](=O)[O-])o2)cc1C | 1
[O-][n+]1onc2c3nsnc3c(Br)cc21 | 0

(Q) Looking for the measured P = Potential DNA-damaging of "Cc1cc(C)c(C(=O)/C=C/c2ccccc2F)c(O)n1" , can you help?
(A) 0

(Q) Looking for the measured P = Potential DNA-damaging of "Nc1ccccc1S(=O)(=O)Nc1cccc2cccnc12" , can you help?
(A) 1

(Q) Looking for the measured P = Potential DNA-damaging of CC1C(=O)C(C)C(c2cc(Cl)ccc2O)NC1c1cc(Cl)ccc1O (stereo not shown) , can you help?
(A) 0

(Q) Looking for the measured P = Potential DNA-damaging of "NS(=O)(=O)c1ccc(NC(=O)c2ccc([N+](=O)[O-])o2)cc1" , can you help?
(A) 1

(Q) Looking for the measured P = Potential DNA-damaging of "CCc1ccc(Oc2nc3ccccn3c(=O)c2/C=C(\C#N)C(=O)NC2CCCCC2)cc1" , can you help?
(A) 0

(Q) Looking for the measured P = Potential DNA-damaging of "O=C(Nc1nc(C23CC4CC(CC(C4)C2)C3)cs1)C(c1ccccc1)c1ccccc1" , can you help?
(A) 0

(Q) Looking for the measured P = Potential DNA-damaging of "COc1ccc(/C=C2\SC(=N)N(c3nccs3)C2=O)cc1" , can you help?
(A) 1

(Q) Looking for the measured P = Potential DNA-damaging of "CCCC(=O)Nc1ccc(-c2cn3cccc(C)c3n2)cc1" , can you help?
(A) 0

###

Test system: NRF2
experimental_details: qPCR analysis of NRF2-regulated genes
Format: cell-based, human
conditions: Homo sapiens; 10 μM, 24 hrs, WI-38 cells, qPCR, normalized to B2M, n = 4; read-out: NQO1 expression, normalized fold change (NRF2-regulated gene)
Measured fold induction at 10 µM, listed per entry for reference.
Returns: the value as a bare number; no unit string appended.

CCc1ccc(Oc2nc3ccccn3c(=O)c2/C=C(\C#N)C(=O)NC2CCCCC2)cc1 | 1.55
O=C(c1ccc([N+](=O)[O-])o1)N1CCc2ccccc21 | 2.95
NS(=O)(=O)c1ccc(NC(=O)c2ccc([N+](=O)[O-])o2)cc1 | 1.79

(Q) Please tell me: fold induction at 10 µM of "COc1cccc(/C=C2\CN(C)C/C(=C\c3cccc(OC)c3OC)C2=O)c1OC" , system NRF2?
(A) 0.48

(Q) Please tell me: fold induction at 10 µM of "Cc1cc(C)c(C(=O)/C=C/c2ccccc2F)c(O)n1" , system NRF2?
(A) 2.94

(Q) Please tell me: fold induction at 10 µM of "O=[N+]([O-])c1ccccc1S(=O)(=O)Nc1cccc2cccnc12" , system NRF2?
(A) 1.37

(Q) Please tell me: fold induction at 10 µM of "COc1ccc(C(=O)/C=C/c2cccc(Cl)c2)c(OC)c1" , system NRF2?
(A) 5

(Q) Please tell me: fold induction at 10 µM of "O=C(/C=C/c1cn(-c2ccccc2)nc1-c1cccnc1)c1ccccc1" , system NRF2?
(A) 1.52

(Q) Please tell me: fold induction at 10 µM of "O=C(/C(=C/c1ccc(Cl)cc1)c1nc2ccccc2[nH]1)c1ccccc1" , system NRF2?
(A) 2.56

(Q) Please tell me: fold induction at 10 µM of "CNC(=O)/C(C#N)=C/c1c(Oc2ccc(C(C)(C)C)cc2)nc2ccccn2c1=O" , system NRF2?
(A) 1.78

(Q) Please tell me: fold induction at 10 µM of "COc1ccc(C(=O)/C=C/c2ccccc2Br)c(OC)c1" , system NRF2?
(A) 2.36
